Tested on: Virginia dayflower
Assay: Test F preemergence test
Format: in vivo, Commelina virginica
Conditions: Preemergence; 16 g ai/ha; scale 0 to 100
quantity-name: Plant response rating, Dayflower

| compound | numeric-readout |
| --- | --- |
| Cc1cc[n+]([O-])c([S+]([O-])Cc2c(C(F)(F)F)nn(C)c2OCC(F)(F)F)c1 (racemic) | 50 |
| Cn1nc(C(F)(F)F)c(C[S+]([O-])c2cccc[n+]2[O-])c1OCC(F)(F)F (racemic) | 20 |
| Cn1nc(C(F)(F)F)c(C[S+]([O-])c2cccc[n+]2[O-])c1Cl (stereo not drawn) | 0 |
| Cc1cc[n+]([O-])c(S(=O)(=O)Cc2c(C(F)(F)F)nn(C)c2Cl)c1 | 0 |
| Cc1cc[n+]([O-])c(S(=O)(=O)C(Cl)c2c(C(F)(F)F)nn(C)c2Cl)c1 (racemic) | 0 |
| CC(c1c(C(F)(F)F)nn(C)c1OC(F)F)S(=O)(=O)c1cccc[n+]1[O-] (stereo not drawn) | 65 |

###

System: crabgrass
Assay: Test C pre-/postemergence test
Assay type: in vivo, Digitaria sanguinalis
Settings: Postemergence, 125 g ai/ha; scale 0 to 100, 0 no effect, 100 complete control
Entries and their measured Plant response rating, Crabgrass, Large follow.
quantity-name: Plant response rating, Crabgrass, Large

| molecule | result |
| --- | --- |
| Cc1cc[n+]([O-])c([S+]([O-])Cc2c(C(F)(F)F)nn(C)c2OC(F)F)c1 (centres unmarked) | 50 |
| Cn1nc(C(F)(F)F)c(C[S+]([O-])c2ccc(Cl)c[n+]2[O-])c1OCC(F)(F)F (racemic) | 0 |
| CC(c1c(C(F)(F)F)nn(C)c1Cl)S(=O)(=O)c1ccc(Cl)c[n+]1[O-] (racemic) | 0 |
| CCn1nc(C(F)(F)F)c(C[S+]([O-])c2cccc[n+]2[O-])c1OCC(F)(F)F (racemic) | 0 |
| Cn1nc(C(F)(F)F)c(C[S+]([O-])c2ccc(F)c[n+]2[O-])c1OC(F)F (centres unmarked) | 0 |

###

System: umbrella sedge
Test: Test C flooded paddy test
Assay type: in vivo, Cyperus difformis
Details: Flood, 31 g ai/ha; scale 0 to 100 (0 no effect, 100 complete control)
Entries and their measured Plant response rating, Sedge, Umbrella follow.

| compound | target-or-system | Plant response rating, Sedge, Umbrella |
| --- | --- | --- |
| Cn1nc(C(F)(F)F)c(C[S+]([O-])c2cc(Br)cc[n+]2[O-])c1Cl (racemic) [Compound 35] | umbrella sedge | 80 |
| Cn1nc(C(F)(F)F)c(C[S+]([O-])c2ccc(Br)c[n+]2[O-])c1OC(F)F (racemic) [Compound 16] | umbrella sedge | 0 |
| Cc1cc[n+]([O-])c(S(=O)(=O)C(Cl)c2c(C(F)(F)F)nn(CC(F)(F)F)c2Cl)c1 (stereo not shown) [Compound 56] | umbrella sedge | 0 |
| CC(c1c(C(F)(F)F)nn(C)c1Cl)S(=O)(=O)c1cccc[n+]1[O-] (stereo not shown) [Compound 10] | umbrella sedge | 40 |
| Cc1cc[n+]([O-])c(S(=O)(=O)C(Cl)c2c(C(F)(F)F)nn(C)c2Cl)c1 (racemic) [Compound 22] | umbrella sedge | 60 |
| Cn1nc(C(F)(F)F)c(C[S+]([O-])c2cc(C(F)(F)F)cc[n+]2[O-])c1Cl (racemic) [Compound 34] | umbrella sedge | 0 |
| Cn1nc(C(F)(F)F)c(CS(=O)(=O)c2cc(C(C)(C)C)cc[n+]2[O-])c1OC(F)F [Compound 25] | umbrella sedge | 0 |

Reference source: patent US20100298141A1
